# systemUnderTest: Jak2 (UniProt O60674)
# Sequence (O60674 whole entry, looked up): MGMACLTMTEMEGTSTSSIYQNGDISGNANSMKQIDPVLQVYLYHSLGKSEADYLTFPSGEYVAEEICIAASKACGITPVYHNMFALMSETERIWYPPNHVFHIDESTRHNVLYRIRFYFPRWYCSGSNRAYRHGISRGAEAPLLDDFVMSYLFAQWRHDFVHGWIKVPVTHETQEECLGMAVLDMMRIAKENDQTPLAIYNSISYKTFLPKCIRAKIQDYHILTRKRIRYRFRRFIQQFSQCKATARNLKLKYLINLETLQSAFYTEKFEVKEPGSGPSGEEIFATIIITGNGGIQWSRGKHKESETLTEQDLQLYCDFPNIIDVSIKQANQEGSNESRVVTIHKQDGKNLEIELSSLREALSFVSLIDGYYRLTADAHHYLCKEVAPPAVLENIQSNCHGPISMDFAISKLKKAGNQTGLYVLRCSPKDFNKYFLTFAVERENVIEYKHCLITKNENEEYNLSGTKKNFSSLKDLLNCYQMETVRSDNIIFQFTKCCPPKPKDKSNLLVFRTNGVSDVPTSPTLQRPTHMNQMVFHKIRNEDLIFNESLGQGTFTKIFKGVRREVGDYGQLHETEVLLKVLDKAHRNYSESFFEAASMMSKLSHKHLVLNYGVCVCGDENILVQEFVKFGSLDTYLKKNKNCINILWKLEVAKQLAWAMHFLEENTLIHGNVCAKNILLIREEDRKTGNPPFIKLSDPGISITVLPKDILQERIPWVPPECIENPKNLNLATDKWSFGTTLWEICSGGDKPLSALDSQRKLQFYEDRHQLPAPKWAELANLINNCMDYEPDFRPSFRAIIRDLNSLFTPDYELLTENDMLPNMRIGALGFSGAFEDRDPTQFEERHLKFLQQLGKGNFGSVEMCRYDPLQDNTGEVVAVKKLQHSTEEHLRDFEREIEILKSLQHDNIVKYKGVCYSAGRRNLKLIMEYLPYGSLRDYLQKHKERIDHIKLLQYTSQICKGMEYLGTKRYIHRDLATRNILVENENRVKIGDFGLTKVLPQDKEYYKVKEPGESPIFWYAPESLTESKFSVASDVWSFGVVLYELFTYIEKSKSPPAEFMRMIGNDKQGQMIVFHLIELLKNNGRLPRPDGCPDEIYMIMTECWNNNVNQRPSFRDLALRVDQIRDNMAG
# methodSummary: phosphorylation enrichment, bacterial display (enrichment ratio); higher = better substrate or ligand; peptides without Tyr show the background
Recorded measurements of phosphorylation enrichment, one per entry
quantity: phosphorylation enrichment

* LSCVIYVILRK [PMP22_Y153_G150C] | 1.83
* SVVVPYAPPEV [TP53_Y220_E221A] | 0.719
* LLKANYELLNA [POLR3A_Y714_K713N] | 0.857
* TEIGQYGNGLK [MORC2_Y100_Q96E] | 0.588
* ENELTYYCCKK [CD59_Y86] | 1.77
* EARRVYGDIIY [ALDH5A1_Y175_H180Y] | 0.813
* SSSNPYSTVTV [ACTN2_Y599_M604V] | 0.383

====

# systemUnderTest: SHP2-C SH2;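 note: peptide library displayed on the E. coli surface as eCPX fusions, selected cells deep-sequenced, score is each peptide's frequency after selection divided by its frequency in the input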
# methodSummary: SH2 binding enrichment of the phosphorylated peptide, bacterial display (enrichment ratio); higher = better substrate or ligand; peptides without Tyr show the background
quantity: SH2 binding enrichment

- PVFQVYPLLNC [GATA1_Y78]: 0.783
- PVPKTYDMLKA [PKP2_Y108]: 0.695
- EREYKYGAHKY [OAT_Y50_N54K]: 0.639
- GVRLYYRVRES [RB1_Y454_M457R]: 0.872
- LSCVIYVILRK [PMP22_Y153_G150C]: 2.02
- AFGEVYEGQVS [ALK_Y1131]: 0.456
- ISKKIYDTIHD [CTNNA3_Y614]: 0.675

====

# systemUnderTest: FGFR3 (UniProt P22607)
# Sequence (P22607 whole entry, looked up): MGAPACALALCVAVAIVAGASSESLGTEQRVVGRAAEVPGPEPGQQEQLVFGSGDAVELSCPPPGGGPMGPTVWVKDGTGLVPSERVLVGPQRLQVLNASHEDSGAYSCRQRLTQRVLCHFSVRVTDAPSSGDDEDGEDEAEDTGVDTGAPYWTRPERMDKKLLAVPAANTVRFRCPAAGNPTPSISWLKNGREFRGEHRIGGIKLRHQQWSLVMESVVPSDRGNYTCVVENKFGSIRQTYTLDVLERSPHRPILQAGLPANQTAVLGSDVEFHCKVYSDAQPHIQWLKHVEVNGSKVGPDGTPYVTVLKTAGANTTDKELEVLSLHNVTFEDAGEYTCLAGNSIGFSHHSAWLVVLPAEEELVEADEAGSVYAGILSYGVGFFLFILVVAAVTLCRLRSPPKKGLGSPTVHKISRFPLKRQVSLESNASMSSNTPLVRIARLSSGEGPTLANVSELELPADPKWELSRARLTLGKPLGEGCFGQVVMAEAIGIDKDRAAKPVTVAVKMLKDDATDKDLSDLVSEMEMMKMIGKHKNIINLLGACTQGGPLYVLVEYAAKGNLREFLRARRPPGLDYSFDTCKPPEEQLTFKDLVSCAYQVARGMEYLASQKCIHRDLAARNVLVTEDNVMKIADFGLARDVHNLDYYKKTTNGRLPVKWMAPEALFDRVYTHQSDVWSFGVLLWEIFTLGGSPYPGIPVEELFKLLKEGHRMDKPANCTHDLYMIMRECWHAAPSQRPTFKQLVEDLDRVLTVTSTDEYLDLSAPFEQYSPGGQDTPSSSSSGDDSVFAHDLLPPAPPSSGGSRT
# methodSummary: phosphorylation enrichment, bacterial display (enrichment ratio); higher = better substrate or ligand; peptides without Tyr show the background
Recorded measurements of phosphorylation enrichment, one per entry
quantity: phosphorylation enrichment

* EREYKYGAHKY [OAT_Y50_N54K] | 0.441
* VSSPKYGSDDE [TMCC2_Y473] | 0.713
* SVVVPYKPPEV [TP53_Y220_E221K] | 0.448
* RRNSPYSQTMK [TET2_Y819] | 0.953
* KTKIGYSPLHQ [ANK1_Y735_L733I] | 0.384
* PPVVNYEQDAR [FER_Y402_E404Q] | 1.29
* ITKQEYDEAGP [ACTA1_Y364] | 0.689
* DPGVSYRTREE [PDHA1_Y301] | 0.53
* NTGFFYDLFGG [PTPN11_Y63_D61Y_YF] | 0.786
* IDPYIYTPFGS [CYP3A4_Y432] | 1.66
* KMKGDYFRSLA [YWHAG_Y130_Y133S_YF] | 0.602
* DFDHSYFFIAT [ESD_Y262_G257D_YF] | 7.62
* VLTSTYRGGGG [HBA1_Y141_K140T] | 0.483
* GQAPGYSYTAA [CYCS_Y47] | 0.481
* ILGRFYERGSI [PAX5_Y73_T75R_YF] | 0.517
* YSNKLHYQLEQ [PDPR_Y109_Y109H] | 0.592
* VDHFGYNKDDK [APOB_Y740_T741N] | 0.493
* LNSFIYSLRNR [OR1A1_Y288_P285S] | 0.671
* SVVMPYEPPEV [TP53_Y220_V218M] | 0.674
* LGPSDYFGETA [PRKAR1A_Y323_I327T] | 0.636
* RSGIFYKPESL [L2HGDH_Y103_H98R_YF] | 0.702
* SHNKFYMLVAH [MFSD8_Y134_R139H_YF] | 0.99
* TKQLTYEEQFL [PIK3C3_Y310_D314Y_YF] | 0.65
* LMIKEYLTKEL [BAG3_Y457_E455K] | 0.72
* KVVVPYEPPEV [TP53_Y220_S215K] | 0.632
* LPKVSYVKAID [GLRA1_Y307] | 0.433
* ANFTEYVATRW [CDKL5_Y171_YF] | 0.814
* QQTFTYDSGIH [JUP_Y22_YF] | 1.42
* HPYNSYTYPRL [PAK5_Y316_S312P] | 0.962
* TNLVPYPCIHF [TUBA1A_Y262_R264C] | 0.66
* ALEKTYNTFRS [B4GALNT2_Y538_YF] | 0.456
* SEASYYKSLNL [NGEF_Y289] | 0.979
* WQQQSYLDSVI [CTNNB1_Y30_G34V] | 0.716
* FVTCTYSPALN [TP53_Y126_S121F] | 0.71
* KTVQDYLEKFY [MMP8_Y36] | 0.707
* RAILNYIASKF [GSTA3_Y74_YF] | 0.861
* RLLRGYRQDAF [HLA-A_Y137_F133L_YF] | 0.676
* YQGGTYSKACT [FGG_Y380_S384C] | 0.529
* MENFIYESMQY [CYP19A1_Y361_R365Q] | 0.724
* LVRPPYSYSAL [FOXI1_Y126] | 0.713
* KNAEKYAEEDW [HSPA9_Y568_R573W] | 0.776
* PIPAAYNRYDQ [CDC73_Y290] | 0.621
* VQVAFYTMMMN [SPATA17_Y84_YF] | 1.99
* REGAKYVSHSA [ASS1_Y113_G117S] | 0.854
* RGGWVYVLHPT [TRMT61A_Y67] | 1.03
* LKGQVYILGWE [ASS1_Y359_R363W] | 0.81
* YVPSFYHAFSG [ACTN4_Y265_S262P] | 1.17
* DRFANYIEKVR [DES_Y122] | 0.508
* FLAVGYHKPRI [IDS_Y225_H229R] | 0.5
* SSQTIYQRVEG [TFR2_Y23_V22I] | 0.602
* SFCFRYRCAAQ [SUMF1_Y344_R349Q_YF] | 0.463
* SEDSEYYKAFE [CASQ2_Y178] | 0.98
* LEGAKYVSHGA [ASS1_Y113_R108L] | 1.17
* QMVGMYAFSFM [AVPR2_Y124_S126F_YF] | 1.63
* FSQQVYRVNLS [FAT4_Y480] | 0.516
* FPPTHYIRRMP [SLC4A11_Y820_V824M_YF] | 0.502
* VIECSYTSADG [DHCR7_Y382] | 0.623

The origin of these recorded values is the supplement of paper PMC10065799.
